- assay_target: T1, human PVRIG (Poliovirus Receptor Related Immunoglobulin Domain Containing Protein), full length on cells (human, UniProt Q6DKI7 41-326)
- T1 construct: whole, on cells; Over-expressed on HEK293 (some pools flag-tagged) or endogenous on Jurkat, CA46, T cells, NK cells, TILs; also called hPVRIG; HEK hPVRIG
- T1 sequence (looked up): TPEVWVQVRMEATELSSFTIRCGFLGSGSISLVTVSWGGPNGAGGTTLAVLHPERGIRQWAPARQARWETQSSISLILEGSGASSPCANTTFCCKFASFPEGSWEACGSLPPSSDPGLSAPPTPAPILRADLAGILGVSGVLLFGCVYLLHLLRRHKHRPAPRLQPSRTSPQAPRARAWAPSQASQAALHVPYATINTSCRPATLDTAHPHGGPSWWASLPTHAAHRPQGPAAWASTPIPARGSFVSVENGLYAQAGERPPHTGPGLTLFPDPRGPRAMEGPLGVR
- method_summary: FACS dose titration on PVRIG over-expressing HEK293 cells
Each record here notes measured Kd.

Reference set, count: 5
{"binder": "CPA.7.014 human IgG1 (antibody, V domains shown) VH: EVQLVQSGAEVKKPGASVKVSCKVSGYTLTELSMHWVRQAPGKGLEWMGGFDPEDGETIYAQKFQGRVTMTEDTSTDTAYMELSSLRSEDTAVYYCATGVTTYYYYGMDVWGQGTTVTVSS VL: DVVMTQSPLSLPVTPGEPASISCRSSQSLLYSNGNNFLDWYLQKPGQSPRLLISLGSNRASGVPDRFSGSGSGTDFTLKISRVEAEDVGIYYCMQALQTPPTFGQGTKVEIKR", "Kd": "2.04 nM"}
{"binder": "CPA.7.023 human IgG1 (antibody, V domains shown) VH: EVQLVQSGAEVKKPGASVKVSCKVSGYTLTELSMHWVRQAPGKGLEWMGGFDPEDGETIYAQKFQGRVTMTEDTSTDTAYMELSSLRSEDTAVYYCATDSRDGPAARGGYYYYMDVWGQGTTVTVSS VL: DVVMTQSPLSLPVTLGQPASISCRSSQSLLYINGYNYLDWYLQKPGQSPQLLIYLGSNRASGVPDRFSGSGSGTDFTLKISRVEAEDVGVYYCMQALQTPPTFGQGTKVEIKR", "Kd": "4.08 nM"}
{"binder": "CPA.7.011 human IgG1 (antibody, V domains shown) VH: EVQLVQSGAEVKKPGASVKVSCKVSGYTLTELSMHWVRQAPGKGLEWMGGFDPEDGETIYAQKFQGRVTMTEDTSTDTAYMELSSLRSEDTAVYYCATGPAAAGVGYYYYMDVWGKGTTVTVSS VL: DVVMTQSPLSLPVTPGEPASISCRSSQSLLYRNGYNYLDWYLQKPGQSPQLLIYLGSNRASGVPDRFSGSGSGTDFTLKISRVEAEDVGVYYCMQALQTPPTFGQGTKVEIKR", "Kd": "66 nM"}
{"binder": "CPA.7.022 human IgG1 (antibody, V domains shown) VH: EVQLVQSGAEVKKPGASVKVSCKVSGYTLTELSMHWVRQAPGKGLEWMGGFDPEDGETIYAQKFQGRVTMTEDTSTDTAYMELSSLRSEDTAVYYCATGVPAAIGVYYYYYYMDVWGKGTTVTVSS VL: DVVMTQSPLSLPVTPGEPASISCRSSQSLLYSNGYNYLDWYLQKPGQSPQLLISLGSNRASGVPDRFSGSGSGTDFTLKISRVEAEDVGVYYCMQALQSPVTFGGGTKVEIKR", "Kd": "4.17 nM"}
{"binder": "CPA.7.021 human IgG1 (antibody, V domains shown) VH: EVQLVESGGGVVKPGGSLRLSCAASGFTFGTSSMNWVRQAPGKGLEWVAVISFDGTEIHYADSVKGRFTISRDNSKSTVFLQMNSLRPDDTALYYCAKGSGNIYFYSGMDVWGQGTTVTVSS VL: DIQMTQSPSTLSASVGDRVTITCRAGQSISGWLAWFQQKPGKAPNLLIYETSTLESGVPSRFSGSGSGTEYTLTISSLQPDDFATYYCQQYYSYPLTFGQGTKVEIKR", "Kd": "11.2 nM"}

CPA.7.040 human IgG1 (antibody, V domains shown) VH: EVQLVQSGAEVKKPGASVKVSCKVSGYTLTELSMHWVRQAPGKGLEWMGGFDPEDGETIYAQKFQGRVTMTEDTSTDTAYMELSSLRSEDTAVYYCATGVPAAIGVYYYYYYMDVWGKGTTVTVSS VL: DVVMTQSPLSLPVTPGEPASISCRSSQSLLYRNGYNYLDWYLQKPGQSPQLLIYWGSYRASGVPDRFSGSGSGTDFTLKISRVEAEDVGVYYCMQAVQNPPTFGQGTKVDIKR has a reported Kd of 0.79 nM

# Kd of CPA.7.019 human IgG1 (antibody, V domains shown) VH: QVQLQESGPGLVKSSETLSLTCSVSGGSISNSNYYWGWIRQPPGKGLEWIGGIYYSGSTYYNPSLESRVTISEDTSKNQISLKLSSVTAADTAVYYCARGAWELSLGDWFDPWGPGTLVTVSS VL: QSVLTQPPSVSGAPGQRVTISCTGSSSNIGAGYDIQWYQQLPGTAPKLLIYGNNNRPSGVPDRFSGSRSGTSASLAITGLQAEDEADYYCQSYDSSLSVYVVFGGGTQLTVLG = 0.45 nM
